Ref: paper PMC5700166

# experimentalSystem: GST-Hu-p50 (Homo sapiens, UniProt P19838 7-356)
# Sequence (P19838 7-356): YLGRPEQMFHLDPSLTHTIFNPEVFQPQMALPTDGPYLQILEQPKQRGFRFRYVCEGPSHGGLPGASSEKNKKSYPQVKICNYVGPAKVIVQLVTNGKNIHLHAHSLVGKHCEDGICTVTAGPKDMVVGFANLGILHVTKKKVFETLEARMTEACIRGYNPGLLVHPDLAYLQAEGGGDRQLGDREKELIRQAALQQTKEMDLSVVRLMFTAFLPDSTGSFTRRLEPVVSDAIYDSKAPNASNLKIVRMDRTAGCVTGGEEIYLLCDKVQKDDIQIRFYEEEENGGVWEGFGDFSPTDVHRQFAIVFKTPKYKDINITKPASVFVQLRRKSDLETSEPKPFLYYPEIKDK
# assayDetails: protein-binding microarray (PBM); PBM: ~300 nM protein, 6 mM HEPES pH 7.8, 80 mM KCl, 0.5 mM EDTA, 0.5 mM EGTA, 6% glycerol, 35 ng/ul poly-dIdC, 1% milk, 1 h, room temperature; Ap Aiptasia and Nv Nematostella (sea anemones) / Co Capsaspora / Aq Amphimedon (sponge) / Dm Drosophila / Hu human; RHD is the Rel homology domain; high values mean tight binding
# testContext: dsDNA, one strand shown
I'd be grateful if you could share measured binding signal for these entries.
One number for each entry, in z-score.

* CCGATTAACATCAGGTTTTTCCATGATGTTAATCGGGTCTTGATTCGCTTGACGCTGCTG | 1.41
* CCGATTAACATCACAACCCCCCCTGATGTTAATCGGGTCTTGATTCGCTTGACGCTGCTG | 4.53
* CCGATTAACATCAAGCAATTCCCTGATGTTAATCGGGTCTTGATTCGCTTGACGCTGCTG | 2.99
* CCGATTAACATCAGGGAATGCCATGATGTTAATCGGGTCTTGATTCGCTTGACGCTGCTG | 1.54
* CCGATTAACATCAATACACCCCCTGATGTTAATCGGGTCTTGATTCGCTTGACGCTGCTG | 4.34
* CCGATTAACATCAGGGGAGAAAATGATGTTAATCGGGTCTTGATTCGCTTGACGCTGCTG | 4.88
* CCGATTAACATCAGGAAGTTACCTGATGTTAATCGGGTCTTGATTCGCTTGACGCTGCTG | 1.42
* CCGATTAACATCAGGGGACGCACTGATGTTAATCGGGTCTTGATTCGCTTGACGCTGCTG | 4.28

input: Quick check: binding signal of `CCGATTAACATCAGGGATCCCCATGATGTTAATCGGGTCTTGATTCGCTTGACGCTGCTG` ?
output: 4.35
